Value source: the supplement of paper PMC10567573

B1: HSP90AB1 (parent)
chain: EADKNDKAVKDLVVLLFETALLSS

Variants of: B1
Procedure text: protein stability index of a GFP-peptide fusion (GPS, HEK-293T) (PSI 1-6); higher = more stable;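 further: lentivirally expressed fusions sorted by FACS into six bins by GFP to DsRed ratio, PSI derived from sequencing read proportions per bin multiplied by bin number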
Assay conditions: c terminus: a fixed tail appended
Kindly state protein stability index for each of the entries shown.
Give bare numbers.

Below, each entry is followed by its recorded protein stability index result.
Change | Reported
A8R | 2.19
L22W | 1.64
L12N | 3.89

Hi! Can you tell me protein stability index for each of these variants?
1. K4L
2. K10L
3. K4Y
4. A8E
5. L16K
6. D3A
7. L12A
8. L16S

Return:
1.75
1.82
2.13
2.12
3.62
2.57
2.52
3.94
